Where do the numbers come from? From the supplement of paper PMC4466140.

Molecular target: AgCyk3
Experiment: SPOT peptide array binding signal intensity (averaged, normalized) (arbitrary units (background-subtracted, floor 0; scale differs between SH3 domains)); higher = stronger binding of the SH3 domain to the peptide
# SPOT peptide array binding signal intensity listing for each entry below

Sample answers from the record:
>>> value_observed("GRSRLFPHSPLGRSS")
0.5
>>> value_observed("NTMKKRPAPPSLPSL")
"≤ 0"
>>> value_observed("AIPPPVPNRPGGTTN")
"≤ 0"
>>> value_observed("PKMLPIPSKPTLFDL")
"≤ 0"

# next binder below
Looking up VAPPPLPNRQLPNLD , I found its SPOT peptide array binding signal intensity recorded as ≤ 0
